Each entry below carries its recorded pKi.
Target: Type-2 angiotensin II receptor (Sus scrofa)
Experiment: Binding affinity for angiotensin II receptor, type 2 in pig uterus myometrium using [125I]-Ang II as radioligand, in pH 7.4 Tris-HCl buffer for 1.5 hr at 25 degree C
Starred links: 1 amine or outer side, 2 acyl side, 3 side chain; linkers in the order of their positions; H or OH if unused. Non-standard residues stand in square brackets, D forms with d. Residues, ends and D or L forms follow the SMILES beside them. X2 = O=C(c1cc(CN[*:1])cc(Cc2ccc(O)cc2)c1)[*:2]
Just the number, please; pKi means minus log10 of the concentration in mol/L.

Notebook: CC(C)[C@H](NC(=O)[C@H](CCCNC(=N)N)NC(=O)[C@@H](N)CC(=O)O)C(=O)NCc1cc(Cc2ccc(O)cc2)cc(C(=O)N[C@@H](Cc2cnc[nH]2)C(=O)N2CCC[C@H]2C(=O)N[C@@H](Cc2ccccc2)C(=O)O)c1 (H-DRV[X2]HPF-OH) , pKi read as 8.73

Each recorded value in this set is attributed to BindingDB's records for doi:10.1021/jm050280z.
